# Test system: SW872
# Measurement notes: relative viability vs DMSO control (72 h) (fraction); higher = more viable cells
# Assay context: 0.1235 µM
Metric name: relative viability
Write the number on its own, no unit after it.

Worked examples, 2 compounds total:
INSERT INTO measurements (compound, target_desc, metric_name, data_value) VALUES
  ('CC(C)NC(=O)C1CCC(n2c(NC(=O)c3ccc(F)cc3)nc3ccc(CN4CCC(C(C)(C)O)CC4)cc32)CC1 (stereo not drawn) [Belizatinib]', 'SW872', 'relative viability', 1.01),
  ('C=CC(=O)Nc1cccc(Oc2nc(Nc3ccc(N4CCN(C)CC4)cc3)nc3ccsc23)c1 [Olmutinib]', 'SW872', 'relative viability', 1.01);

// switching to the query compound
Recorded relative viability for CC(=O)Nc1cccc(-n2c(=O)n(C3CC3)c(=O)c3c(Nc4ccc(I)cc4F)n(C)c(=O)c(C)c32)c1 [Trametinib] with SW872, please?
0.593

###

Entries and their measured relative viability follow.
# System: SW872
# Measurement notes: relative viability vs DMSO control (72 h) (fraction); higher = more viable cells
# Assay context: 0.01372 µM

Worked examples, 3 compounds total:
INSERT INTO assay_data (compound, data_value) VALUES
  ('C=CC(=O)N1CCC[C@@H](n2nc(-c3ccc(Oc4ccccc4)cc3)c3c(N)ncnc32)C1 [Ibrutinib]', 1.01),
  ('O=C(Nc1cnn2ccc(N3CCC[C@@H]3c3cc(F)ccc3F)nc12)N1CC[C@H](O)C1 [Larotrectinib]', 1.05),
  ('CCN1CCN(Cc2ccc(Nc3ncc(F)c(-c4cc(F)c5nc(C)n(C(C)C)c5c4)n3)nc2)CC1 [Abemaciclib]', 1.01);

// switching to the query compound
Recorded relative viability for CC(=O)Nc1cccc(-n2c(=O)n(C3CC3)c(=O)c3c(Nc4ccc(I)cc4F)n(C)c(=O)c(C)c32)c1 [Trametinib] with SW872, please?
0.597

###

Entries and their measured standardised AUC follow.
# Test system: SK-LMS-1
# Measurement notes: standardised AUC of viability dose-response curve (72 h) (fraction (0-1)); higher = less growth inhibition (more resistant)
Write the number on its own, no unit after it.

INSERT INTO assay_data (compound, metric_name, data_value) VALUES
  ('CC(C)NC(=O)C1CCC(n2c(NC(=O)c3ccc(F)cc3)nc3ccc(CN4CCC(C(C)(C)O)CC4)cc32)CC1 (configuration not stated)', 'standardised AUC', 0.926),
  ('COc1cc2c(Oc3ccc4[nH]c(C)cc4c3F)ncnc2cc1OCCCN1CCCC1', 'standardised AUC', 0.966),
  ('CO[C@H]1C[C@@H]2CC[C@@H](C)[C@@](O)(O2)C(=O)C(=O)N2CCCC[C@H]2C(=O)O[C@H]([C@H](C)C[C@@H]2CC[C@@H](OP(C)(C)=O)[C@H](OC)C2)CC(=O)[C@H](C)/C=C(\C)[C@@H](O)[C@@H](OC)C(=O)[C@H](C)C[C@H](C)/C=C/C=C/C=C/1C', 'standardised AUC', 0.645),
  ('C=CC(=O)Nc1cccc(Oc2nc(Nc3ccc(N4CCN(C)CC4)cc3)nc3ccsc23)c1', 'standardised AUC', 0.927),
  ('CNC(=O)c1cc(Oc2ccc(NC(=O)Nc3ccc(Cl)c(C(F)(F)F)c3)c(F)c2)ccn1', 'standardised AUC', 0.904),
  ('Cc1cc(Nc2ncnc3ccc(NC4=NC(C)(C)CO4)cc23)ccc1Oc1ccn2ncnc2c1', 'standardised AUC', 0.985);

// switching to the query compound
Dear colleague, I am looking for the recorded standardised AUC of the following compound: COc1c(OCCCN2CCOCC2)ccc2c1N=C(NC(=O)c1cnc(N)nc1)N1CCN=C21
0.617
